- Tested on: P388
- METHOD: Antiproliferative activity measured against P388 Leukemia cells
- Type: functional, cell-based, Mus musculus
- RUN PARAMETERS: Mus musculus, P388
MEASURED ATTRIBUTE: IC50 (µM)

[[record]]
compound_structure_string = "CO[C@H]1[C@H](O)[C@@H](O)[C@H](n2c3c(Cl)cccc3c3c4c(c5c6cccc(Cl)c6[nH]c5c32)C(=O)N(C)C4)O[C@@H]1CO.CO[C@H]1[C@H](O)[C@@H](O)[C@H](n2c3c(Cl)cccc3c3c4c(c5c6cccc(Cl)c6[nH]c5c32)CN(C)C4=O)O[C@@H]1CO"
value = 0.52

[[record]]
compound_structure_string = "CO[C@H]1[C@H](O)[C@@H](O)[C@H](n2c3ccccc3c3c4c(c5c6ccccc6[nH]c5c32)C(=O)N(C)C4=O)O[C@@H]1CO"
value = 1.06


(A) CO[C@H]1[C@H](O)[C@@H](O)[C@H](n2c3ccccc3c3c4c(c5c6ccccc6[nH]c5c32)C(=O)N(C)C4)O[C@@H]1CO.CO[C@H]1[C@H](O)[C@@H](O)[C@H](n2c3ccccc3c3c4c(c5c6ccccc6[nH]c5c32)CN(C)C4=O)O[C@@H]1CO
(B) CO[C@H]1[C@H](O)[C@@H](O)[C@H](n2c3c(Cl)cccc3c3c4c(c5c6cccc(Cl)c6[nH]c5c32)C(=O)NC4=O)O[C@@H]1CO
Determine, for A and B , which has the greater value of IC50. Indicate which entry you chose by stating its label. A

All values here come from ChEMBL document CHEMBL1131383.
